TARGET_UNDER_TEST: FimH-CRD (Escherichia coli, UniProt P08191)
Construct: The first 177 amino acids of the FimH protein; thrombin tag (printed as 'fusion protein with thrombin') (cleaved yes)
Sequence (P08191 22-177): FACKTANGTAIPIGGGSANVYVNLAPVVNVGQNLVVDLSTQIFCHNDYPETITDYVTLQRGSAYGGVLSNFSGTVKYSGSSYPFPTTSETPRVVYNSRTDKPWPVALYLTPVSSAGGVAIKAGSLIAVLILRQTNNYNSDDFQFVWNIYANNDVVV
MEASUREMENT_DESCRIPTION: Competitive binding assay by fluorescence polarization, assay 1 (compounds prepared by manual serial dilution)
MEASURED_METRIC: IC50
Answer with the value and then the unit.

Prompt: Determine from records and report IC50 for CNC(=O)c1cc(C(=O)NC)cc(-c2ccccc2[C@H]2O[C@H](CO)[C@@H](O)[C@H](O)[C@@H]2O)c1 [Compound 40]
Completion: 2050 nM

Prompt: Determine from records and report IC50 for OC[C@H]1O[C@H](O[C@@H]2[C@H](O)[C@@H](c3cccc(-c4cncnc4)c3)O[C@H](CO)[C@H]2O)[C@@H](O)[C@@H](O)[C@@H]1O [Compound 279]
Completion: 51 nM

Prompt: Determine from records and report IC50 for O=C(Nc1ccc2[nH]ccc2c1)c1cccc([C@H]2O[C@H](CO)[C@@H](O)[C@H](O)[C@@H]2O)c1 [Compound 27]
Completion: 138 nM

Prompt: Determine from records and report IC50 for COc1ccc(Br)cc1[C@H]1O[C@H](CO)[C@@H](O)[C@H](O)[C@@H]1O [Compound 41]
Completion: 223 nM

Prompt: Determine from records and report IC50 for CNC(=O)c1cc(Oc2cccc([C@H]3O[C@H](CO)[C@@H](O)[C@H](O)[C@@H]3O)c2)cc(C(=O)NC)c1 [Compound 64]
Completion: 55 nM

Prompt: Determine from records and report IC50 for OC[C@H]1O[C@H](O[C@@H]2[C@H](O)[C@@H](c3cccc(O)c3)O[C@H](CO)[C@H]2O)[C@@H](O)[C@@H](O)[C@@H]1O [Compound 265]
Completion: 162 nM

Prompt: Determine from records and report IC50 for O=C(NC1CC1)c1cccc([C@H]2O[C@H](CO)[C@@H](O)[C@H](O)[C@@H]2O)c1 [Compound 36]
Completion: 168 nM

###

TARGET_UNDER_TEST: FimH-CRD (Escherichia coli, UniProt P08191)
Construct: The first 177 amino acids of the FimH protein; thrombin tag (printed as 'fusion protein with thrombin') (cleaved yes)
MEASUREMENT_DESCRIPTION: Competitive binding assay by fluorescence polarization, assay 1 (compounds prepared by manual serial dilution)
Provide the reported pIC50 of each item.
Keep in mind that pIC50 stands for -log10 of concentration in molar terms.

Prompt: Report measured pIC50 on FimH-CRD (Escherichia coli, UniProt P08191); entry: `C[C@@H](NC(=O)Oc1cccc([C@H]2O[C@H](CO)[C@@H](O)[C@H](O)[C@@H]2O)c1)c1ccccc1`
Completion: 7.22

Prompt: Report measured pIC50 on FimH-CRD (Escherichia coli, UniProt P08191); entry: `O=C(Nc1cccs1)Oc1cccc([C@H]2O[C@H](CO)[C@@H](O)[C@H](O)[C@@H]2O)c1`
Completion: 7.18

Prompt: Report measured pIC50 on FimH-CRD (Escherichia coli, UniProt P08191); entry: `Nc1cccc(-c2cccc([C@H]3O[C@H](CO)[C@@H](O)[C@H](O)[C@@H]3O)c2)c1`
Completion: 6.61

Prompt: Report measured pIC50 on FimH-CRD (Escherichia coli, UniProt P08191); entry: `COC(=O)Cc1ccc(Oc2ccc([C@H]3O[C@H](CO)[C@@H](O)[C@H](O)[C@@H]3O)cc2)cc1`
Completion: 7.46

Prompt: Report measured pIC50 on FimH-CRD (Escherichia coli, UniProt P08191); entry: `CNC(=O)c1cccc(Oc2cccc([C@H]3O[C@H](CO)[C@@H](O)[C@H](O)[C@@H]3O)c2)c1`
Completion: 7.74

Prompt: Report measured pIC50 on FimH-CRD (Escherichia coli, UniProt P08191); entry: `OC[C@H]1O[C@H](c2cccc(-c3cccnc3)c2)[C@@H](O)[C@@H](O)[C@@H]1O`
Completion: 6.79

Prompt: Report measured pIC50 on FimH-CRD (Escherichia coli, UniProt P08191); entry: `OC[C@H]1O[C@H](c2ccccc2O)[C@@H](O)[C@@H](O)[C@@H]1O`
Completion: 6.74

Ref: patent US20130261077A1
